# Test system: Cytokinin-dependent tobacco callus Nicotiana tabacum L. cv. Wisconsins 38
# ASSAY_EXPLANATION: Tobacco callus bioassay for cytotoxicity (herbicidal activity)
# Format: cell-based
# MEASUREMENT_CONDITIONS: Nicotiana tabacum, 672 h, read-out: 10^−6 M BAP IC50, 10^−6 M 6-benzylaminopurine, four weeks
pIC50: −log10 of the molar value.
Label YES when pIC50 is at or above 5; anything below gets NO.

Below, 5 molecules whose answers are already recorded.
{"MOLECULE": "CC[C@H](CO)Nc1nc(Nc2ccc(Br)cc2)c2[nH]nc(C(C)C)c2n1", "TESTED_TARGET": "Cytokinin-dependent tobacco callus Nicotiana tabacum L. cv. Wisconsins 38", "ANSWER_LABEL": "YES"}
{"MOLECULE": "CC(C)c1n[nH]c2c(Nc3ccc(Cl)c(N)c3)nc(N[C@@H](CO)C(C)C)nc12", "TESTED_TARGET": "Cytokinin-dependent tobacco callus Nicotiana tabacum L. cv. Wisconsins 38", "ANSWER_LABEL": "YES"}
{"MOLECULE": "CC(C)c1n[nH]c2c(Nc3ccccc3)nc(N[C@@H](CO)C(C)C)nc12", "TESTED_TARGET": "Cytokinin-dependent tobacco callus Nicotiana tabacum L. cv. Wisconsins 38", "ANSWER_LABEL": "YES"}
{"MOLECULE": "CC[C@H](CO)Nc1nc(NCc2ccccc2)c2[nH]nc(C(C)C)c2n1", "TESTED_TARGET": "Cytokinin-dependent tobacco callus Nicotiana tabacum L. cv. Wisconsins 38", "ANSWER_LABEL": "NO"}
{"MOLECULE": "Cc1n[nH]c2c(NCc3ccccc3)nc(NCCCN)nc12", "TESTED_TARGET": "Cytokinin-dependent tobacco callus Nicotiana tabacum L. cv. Wisconsins 38", "ANSWER_LABEL": "NO"}

Please tell me: is the molecule CC(C)c1n[nH]c2c(Nc3cccc(Cl)c3)nc(NCCN)nc12 at or over 5 in terms of pIC50? NO

Please tell me: is the molecule CC(C)c1n[nH]c2c(Nc3ccc(O)c(C(=O)O)c3)nc(N[C@@H](CO)C(C)C)nc12 at or over 5 in terms of pIC50? YES

Please tell me: is the molecule CC[C@H](CO)Nc1nc(NCc2c(N)cccc2Cl)c2[nH]nc(C(C)C)c2n1 at or over 5 in terms of pIC50? NO

Please tell me: is the molecule CC(C)c1n[nH]c2c(Nc3ccc(Cl)cc3)nc(N[C@@H](CO)C(C)C)nc12 at or over 5 in terms of pIC50? YES

Please tell me: is the molecule CC[C@H](CO)Nc1nc(NCc2ccc(Cl)c(N)c2)c2[nH]nc(C(C)C)c2n1 at or over 5 in terms of pIC50? YES

Please tell me: is the molecule CC[C@H](CO)Nc1nc(NCc2cccc(Cl)c2O)c2[nH]nc(C(C)C)c2n1 at or over 5 in terms of pIC50? YES

Please tell me: is the molecule CC(C)c1n[nH]c2c(NCc3ccc(Cl)c(N)c3N)nc(N[C@@H](CO)C(C)C)nc12 at or over 5 in terms of pIC50? YES

Please tell me: is the molecule CC(C)c1n[nH]c2c(NCc3ccccc3)nc(NCCCN)nc12 at or over 5 in terms of pIC50? NO

Please tell me: is the molecule CC(C)c1n[nH]c2c(Nc3ccc(C(=O)O)c(Cl)c3)nc(N[C@@H](CO)C(C)C)nc12 at or over 5 in terms of pIC50? YES

Please tell me: is the molecule CC[C@H](CO)Nc1nc(NCc2cccc(OC)c2O)c2[nH]nc(C(C)C)c2n1 at or over 5 in terms of pIC50? NO

Please tell me: is the molecule CC(C)c1n[nH]c2c(Nc3cccc(Cl)c3)nc(NCCCN)nc12 at or over 5 in terms of pIC50? NO

Please tell me: is the molecule COc1cccc(CNc2nc(N[C@@H](CO)C(C)C)nc3c(C(C)C)n[nH]c23)c1O at or over 5 in terms of pIC50? NO

Please tell me: is the molecule CC(C)c1n[nH]c2c(NCc3ccccc3)nc(NC3CCC(N)CC3)nc12 (centres unmarked) at or over 5 in terms of pIC50? NO

Please tell me: is the molecule CC[C@H](CO)Nc1nc(NCc2ccccc2)c2[nH]nc(C)c2n1 at or over 5 in terms of pIC50? NO

Please tell me: is the molecule CC(C)c1n[nH]c2c(NCc3ccc(Cl)c(N)c3)nc(N[C@@H](CO)C(C)C)nc12 at or over 5 in terms of pIC50? NO

Please tell me: is the molecule CC[C@H](CO)Nc1nc(Nc2ccc(Cl)c(C(=O)O)c2)c2[nH]nc(C(C)C)c2n1 at or over 5 in terms of pIC50? YES

Please tell me: is the molecule CC(C)c1n[nH]c2c(NCc3ccccc3)nc(NC3CCCCC3N)nc12 (centres unmarked) at or over 5 in terms of pIC50? NO

Please tell me: is the molecule CC[C@H](CO)Nc1nc(Nc2ccc(Cl)c(N)c2)c2[nH]nc(C(C)C)c2n1 at or over 5 in terms of pIC50? YES

Please tell me: is the molecule Cc1n[nH]c2c(NCc3ccccc3)nc(NC3CCCCC3N)nc12 (centres unmarked) at or over 5 in terms of pIC50? NO

Please tell me: is the molecule CC(=O)Oc1ccccc1CNc1nc(N[C@@H](CO)C(C)C)nc2c(C(C)C)n[nH]c12 at or over 5 in terms of pIC50? YES

Every entry's value here was drawn from patent US7745450B2.
